EXPERIMENT SUMMARY: plasmodial surface anion channel blockers, osmotic lysis – cell-based, P. falciparum Indochina, OD700, 1 h, primary screen (AID 1154)
SETTINGS: P. falciparum Indochina infected RBC osmotic lysis, called active from +8 up or from −8 down
Calls of active or inactive are those of the source.
Give your call using only these classes: active, inactive

Exercise: # outcome recorded in this test, key = COCCCNC(=O)[C@@]1(Cc2ccccc2CN=[N+]=[N-])N=C(c2ccc(OCCCO)cc2)O[C@H]1c1ccccc1N=[N+]=[N-]
Key: active

Exercise: # outcome recorded in this test, key = C=CCOC(=O)[C@@H]1[C@H]2C(=O)O[C@H](c3ccccc3)[C@H](c3ccccc3)N2[C@H](c2ccc(OCCOC(=O)[C@H]3C[C@H]4C(=O)N[C@@H](Cc5ccccc5)C(=O)N4[C@H]3c3cccc(OCCO)c3)cc2)[C@@]12C(=O)Nc1ccc(I)cc12
Key: inactive

Exercise: # outcome recorded in this test, key = O=C1N(CCS(=O)(=O)c2ccccc2)c2ccccc2[C@H]2OC(c3ccc(OCCCO)cc3)=N[C@@]12CCS(=O)(=O)c1ccccc1
Key: active

Continuing:
Exercise: # outcome recorded in this test, key = CC1(C)[C@@H]2CC(C(O)C3C=CC4C(=O)N(c5ccccc5)C(=O)C4N3Nc3ccccc3F)=C[C@@H]1C2 (stereo partly specified)
Key: inactive

Exercise: # outcome recorded in this test, key = C=CCOC(=O)[C@H]1[C@@H]2C(=O)O[C@@H](c3ccccc3)[C@@H](c3ccccc3)N2[C@@H](c2ccc(OCCOC(=O)[C@H]3C[C@H]4C(=O)N[C@@H](CCCCN(C)C)C(=O)N4[C@H]3c3ccc(O)cc3)cc2)[C@]12C(=O)Nc1ccccc12
Key: inactive

Exercise: # outcome recorded in this test, key = CO[C@H]1O[C@H](CO)[C@@H](OC(=O)c2ccc(Br)cc2)[C@@H]2OC(=O)[C@H](Cc3cccc(Br)c3)C/C=C/C[C@@H](Cc3cccc(Br)c3)C(=O)O[C@@H]12
Key: inactive

###

TESTED ON: Neurogenic locus notch homolog protein 3 (Homo sapiens) (UniProt Q9UM47)
Sequence (Q9UM47 whole entry, looked up): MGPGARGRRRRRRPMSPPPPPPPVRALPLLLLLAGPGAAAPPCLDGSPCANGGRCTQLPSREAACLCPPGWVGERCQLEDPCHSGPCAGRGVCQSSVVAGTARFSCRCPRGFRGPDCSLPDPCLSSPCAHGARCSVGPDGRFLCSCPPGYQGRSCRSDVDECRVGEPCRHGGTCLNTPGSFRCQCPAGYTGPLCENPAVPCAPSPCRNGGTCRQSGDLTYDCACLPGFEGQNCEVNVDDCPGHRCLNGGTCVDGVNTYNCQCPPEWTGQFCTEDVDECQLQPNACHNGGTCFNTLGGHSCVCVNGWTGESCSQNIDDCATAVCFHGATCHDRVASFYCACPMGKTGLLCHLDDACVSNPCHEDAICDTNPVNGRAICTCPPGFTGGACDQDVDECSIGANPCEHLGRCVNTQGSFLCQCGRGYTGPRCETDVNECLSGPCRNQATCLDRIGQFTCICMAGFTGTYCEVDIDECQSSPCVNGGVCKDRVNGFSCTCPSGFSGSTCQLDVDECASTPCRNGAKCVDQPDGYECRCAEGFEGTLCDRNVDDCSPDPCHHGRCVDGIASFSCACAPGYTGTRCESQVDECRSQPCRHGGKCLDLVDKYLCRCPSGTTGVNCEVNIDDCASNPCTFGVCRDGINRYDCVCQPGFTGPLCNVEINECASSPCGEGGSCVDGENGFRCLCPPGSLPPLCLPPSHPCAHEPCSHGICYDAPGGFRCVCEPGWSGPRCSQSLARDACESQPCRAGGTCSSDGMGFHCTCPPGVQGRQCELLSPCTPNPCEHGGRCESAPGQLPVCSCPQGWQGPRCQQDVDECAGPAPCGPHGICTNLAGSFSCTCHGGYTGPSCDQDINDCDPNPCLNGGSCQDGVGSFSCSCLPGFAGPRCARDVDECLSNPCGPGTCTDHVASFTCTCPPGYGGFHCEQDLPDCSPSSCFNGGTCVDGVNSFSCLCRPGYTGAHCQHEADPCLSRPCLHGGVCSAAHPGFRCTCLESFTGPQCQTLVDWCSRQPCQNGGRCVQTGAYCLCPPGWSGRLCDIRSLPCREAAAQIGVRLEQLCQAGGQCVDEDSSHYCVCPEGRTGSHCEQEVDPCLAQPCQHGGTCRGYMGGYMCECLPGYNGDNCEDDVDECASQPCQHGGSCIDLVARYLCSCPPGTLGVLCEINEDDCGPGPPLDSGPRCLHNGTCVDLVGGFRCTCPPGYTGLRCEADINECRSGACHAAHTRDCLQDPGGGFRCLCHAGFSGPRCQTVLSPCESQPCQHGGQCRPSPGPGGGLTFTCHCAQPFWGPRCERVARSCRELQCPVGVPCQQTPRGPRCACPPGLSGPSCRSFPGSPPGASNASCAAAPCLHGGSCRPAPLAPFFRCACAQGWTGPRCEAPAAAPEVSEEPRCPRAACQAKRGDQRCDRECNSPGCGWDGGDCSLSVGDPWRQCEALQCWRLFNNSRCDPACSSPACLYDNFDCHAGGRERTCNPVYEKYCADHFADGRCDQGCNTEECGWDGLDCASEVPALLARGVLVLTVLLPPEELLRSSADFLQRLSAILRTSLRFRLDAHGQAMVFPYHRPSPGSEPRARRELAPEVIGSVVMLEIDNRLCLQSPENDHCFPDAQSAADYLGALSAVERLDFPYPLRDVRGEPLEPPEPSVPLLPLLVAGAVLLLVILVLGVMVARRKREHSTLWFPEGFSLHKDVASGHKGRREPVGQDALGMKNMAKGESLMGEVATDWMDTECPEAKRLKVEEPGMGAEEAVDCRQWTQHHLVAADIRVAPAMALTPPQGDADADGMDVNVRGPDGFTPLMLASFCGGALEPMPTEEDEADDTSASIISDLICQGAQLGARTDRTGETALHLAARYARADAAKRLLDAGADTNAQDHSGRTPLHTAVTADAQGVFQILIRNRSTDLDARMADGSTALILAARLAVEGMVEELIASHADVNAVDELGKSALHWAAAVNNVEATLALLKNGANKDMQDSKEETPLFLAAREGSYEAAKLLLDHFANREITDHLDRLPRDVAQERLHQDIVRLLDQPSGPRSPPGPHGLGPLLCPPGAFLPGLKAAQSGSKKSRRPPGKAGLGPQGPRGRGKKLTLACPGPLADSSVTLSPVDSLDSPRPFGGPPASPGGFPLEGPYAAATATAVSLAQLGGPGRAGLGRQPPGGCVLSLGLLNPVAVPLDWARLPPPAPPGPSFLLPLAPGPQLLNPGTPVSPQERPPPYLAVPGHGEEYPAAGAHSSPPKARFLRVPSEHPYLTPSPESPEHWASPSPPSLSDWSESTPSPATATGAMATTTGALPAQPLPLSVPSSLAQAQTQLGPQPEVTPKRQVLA
EXPERIMENT SUMMARY: small molecules binding NOTCH3 protein – biochemical, 635/667 nm fluorescence, primary screen (AID 1096)
SETTINGS: small-molecule microarray, 635 nm fluorescence, higher = more signal
Please mark criterion met if the recorded composite z-score is equal to or greater than 0.2, and criterion not met if it falls below.

Worked examples, 4 compounds total:
Exercise: # check: composite z-score of CCCCC(=C=CC[C@H](O)c1cccc(OCCO)c1)C[C@H](O)COCc1ccccc1 is greater than or equal to 0.2
Key: criterion not met

Exercise: # check: composite z-score of C=C(C(=O)CC[C@H](OC(=O)c1cccnc1)c1ccc(OCCO)cc1)C(C)C is greater than or equal to 0.2
Key: criterion met

Exercise: # check: composite z-score of COc1ccc([Si](C)(C)[C@@H]2[C@@H](CCO)O[C@]3(C(=O)N(Cc4ccccc4)c4ccc(N5C(=O)COc6ccccc65)cc43)[C@H]2C)cc1 is greater than or equal to 0.2
Key: criterion met

Exercise: # check: composite z-score of C=CCC(OC(C)=O)[C@@H]1[C@@H](N(Cc2ccc(-c3cccc(C(F)(F)F)c3)o2)C(=O)c2cccc3ccccc23)c2cc(OCCCO)ccc2N1C(=O)c1ccc(-c2ccccc2)cc1 (stereo partly specified) is greater than or equal to 0.2
Key: criterion not met

Continuing:
Exercise: # check: composite z-score of C=CCC(OC(C)=O)[C@@H]1[C@@H](N(Cc2cccc3ccccc23)C(=O)Cc2ccc(F)cc2)c2cc(OCCCO)ccc2N1C(=O)Cc1ccc(OC)cc1 (stereo partly specified) is greater than or equal to 0.2
Key: criterion not met

Exercise: # check: composite z-score of COCCOC(=O)N1C(=O)[C@@]2(c3cc(C#CC4(O)CCCCCC4)ccc31)[C@H](C(=O)N1CCN(c3ncccn3)CC1)[C@H]1C(=O)O[C@H](c3ccccc3)[C@H](c3ccccc3)N1[C@@H]2c1ccc(O)cc1 is greater than or equal to 0.2
Key: criterion met
